Tested on: K-562 leukemia cells
Assay: Cell proliferation assay (MTS) on K-562 leukemia cells
Assay type: cell-based
Details: Table 3, 3 days incubation
pIC50: −log10 of the molar value.
pIC50 values, listed per item
result type: pIC50

1. C[C@]12C[C@H](N3CCN(C(=O)[C@@H]4CCCN4C(=O)/C=C/c4ccccc4)CC3)[C@@H](O)C[C@@H]1CC[C@@H]1[C@@H]2CC[C@]2(C)[C@@H](O)CC[C@@H]12 [PC-42] = 5.03
2. C[C@]12C[C@H](N3CCN(C(=O)[C@@H]4CCCN4C(=O)c4cccc5ccccc45)CC3)[C@@H](O)C[C@@H]1CC[C@@H]1[C@@H]2CC[C@]2(C)[C@@H](O)CC[C@@H]12 [PC-37] = 4.97
3. C=C(C)[C@H]1CC=C(C(=O)N2CCC[C@H]2C(=O)N2CCN([C@H]3C[C@@]4(C)[C@@H](CC[C@@H]5[C@@H]4CC[C@]4(C)[C@@H](O)CC[C@@H]54)C[C@@H]3O)CC2)CC1 [PC-46] = 4.85

====

Tested on: MDA-MB-231 (ER−) breast cancer cells
Assay: Cell proliferation assay (MTS) on MDA-MB-231 (ER−) breast cancer cells
Assay type: cell-based
Conditions: Homo sapiens, MDA-MB-231, 72 h, Table 3, 3 days incubation
result type: IC50

1. C[C@]12C[C@H](N3CCN(C(=O)[C@@H]4CCCN4C(=O)c4ccc(C#N)cc4)CC3)[C@@H](O)C[C@@H]1CC[C@@H]1[C@@H]2CC[C@]2(C)[C@@H](O)CC[C@@H]12 = > 10 µM
2. CC(=O)c1cccc(C(=O)N[C@@H](Cc2ccccc2)C(=O)N2CCN([C@H]3C[C@@]4(C)[C@@H](CC[C@@H]5[C@@H]4CC[C@]4(C)[C@@H](O)CC[C@@H]54)C[C@@H]3O)CC2)c1 = > 10 µM
3. COc1cccc2c1C(=O)c1c(O)c3c(c(O)c1C2=O)C[C@@](O)(C(=O)CO)C[C@@H]3O[C@H]1C[C@H](N)[C@H](O)[C@H](C)O1 [Doxorubicin, reference compound] = 0.9 µM

====

Tested on: HL-60 acute promyelocytic leukemia cells
Assay: Cell proliferation assay (MTS) on HL-60 leukemia cells
Assay type: cell-based, human
Details: Homo sapiens; Table 4; HL-60 cancer cell line; read-out: IC50
result type: IC50 (µM)

1) CO[C@H]1CC[C@H]2[C@@H]3CCC4C[C@H](O)[C@@H](N5CCN(C(=O)[C@@H]6CCCN6C(=O)c6ccc7ccccc7c6)CC5)C[C@]4(C)[C@H]3CC[C@]12C (stereo partly drawn) [37 (AH-55)] = 4.5
2) C[C@]12CC[C@H]3[C@@H](CCC4C[C@H](O)[C@@H](N5CCN(C(=O)[C@@H]6CCCN6C(=O)c6ccc7ccccc7n6)CC5)C[C@@]43C)[C@@H]1CC[C@@H]2O (stereo partly drawn) [33 (AH-62)] = 1.4
3) C[C@]12CC[C@H]3[C@@H](CCC4C[C@H](O)[C@@H](N5CCN(C(=O)[C@@H]6CCCN6C(=O)c6cc7ccccc7cn6)CC5)C[C@@]43C)[C@@H]1CC[C@@H]2O (stereo partly drawn) [31 (AH-38)] = 1.6
4) C[C@]12CC[C@H]3[C@@H](CCC4C[C@H](O)[C@@H](N5CCN(C(=O)[C@@H]6CCCN6C(=O)c6ccc7ncccc7c6)CC5)C[C@@]43C)[C@@H]1CC[C@@H]2O (stereo partly drawn) [32 (AH-47)] = 4.7
5) C[C@]12CC[C@H]3[C@@H](CCC4C[C@H](OS(N)(=O)=O)[C@@H](N5CCN(C(=O)[C@@H]6CCCN6C(=O)c6ccc7ccccc7c6)CC5)C[C@@]43C)[C@@H]1CC[C@@H]2OS(N)(=O)=O (stereo partly drawn) [39 (AH-70)] = 5

====

Assay: in vivo
Conditions: male, Sprague-Dawley, rat, sc, 2.3 mg/kg, AUC (0-12 h)
Quick reference: AUC(0-t) of the listed items.
result type: AUC(0-t)

1. C[C@]12CC[C@H]3[C@@H](CCC4C[C@H](O)[C@@H](N5CCN(C(=O)[C@@H]6CCCN6C(=O)c6ccc7ccccc7n6)CC5)C[C@@]43C)[C@@H]1CC[C@@H]2O (stereo partly drawn) [33 (AH-62)] = 752 ng·h/mL
2. C[C@]12CC[C@H]3[C@@H](CCC4C[C@H](O)[C@@H](N5CCN(C(=O)[C@@H]6CCCN6C(=O)c6cc7ccccc7cn6)CC5)C[C@@]43C)[C@@H]1CC[C@@H]2O (stereo partly drawn) [31 (AH-38)] = 991 ng·h/mL
3. C[C@]12CC[C@H]3[C@@H](CCC4C[C@H](O)[C@@H](N5CCN(C(=O)[C@@H]6CCCN6C(=O)c6ccc7ncccc7c6)CC5)C[C@@]43C)[C@@H]1CC[C@@H]2O (stereo partly drawn) [32 (AH-47)] = 1170 ng·h/mL
4. CO[C@H]1CC[C@H]2[C@@H]3CCC4C[C@H](O)[C@@H](N5CCN(C(=O)[C@@H]6CCCN6C(=O)c6ccc7ccccc7c6)CC5)C[C@]4(C)[C@H]3CC[C@]12C (stereo partly drawn) [37 (AH-55)] = 234 ng·h/mL
5. C[C@]12CC[C@H]3[C@@H](CCC4C[C@H](OS(N)(=O)=O)[C@@H](N5CCN(C(=O)[C@@H]6CCCN6C(=O)c6ccc7ccccc7c6)CC5)C[C@@]43C)[C@@H]1CC[C@@H]2OS(N)(=O)=O (stereo partly drawn) [39 (AH-70)] = 67 ng·h/mL
6. C[C@]12C[C@H](N3CCN(C(=O)[C@@H]4CCCN4C(=O)c4ccc5ccccc5c4)CC3)[C@@H](OC(=O)c3ccccc3C(=O)O)C[C@@H]1CC[C@@H]1[C@@H]2CC[C@]2(C)[C@@H](OC(=O)c3ccccc3C(=O)O)CC[C@@H]12 [38 (AH-75)] = 72 ng·h/mL

====

Test system: HL-60 acute promyelocytic leukemia cells
Experiment: Cell proliferation assay (MTS) on HL-60 leukemia cells;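 note: cells exposed to serially diluted compound for 3 days at 37 °C, then viable cell number read via MTS conversion to coloured formazan by metabolically active cells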
Assay type: cell-based, human
Settings: Homo sapiens; Table 6; HL-60 cancer cell line; read-out: IC50 (HL-60)
result type: IC50 (µM)

1. C[C@]12CC[C@H]3[C@@H](CCC4C[C@H](O)[C@@H](N5CCN(C(=O)[C@@H]6CCCN6C(=O)c6cc7ccccc7cn6)CC5)C[C@@]43C)[C@@H]1CC[C@@H]2O (stereo partly drawn) = 1.6
2. C[C@]12CC[C@H]3[C@@H](CCC4C[C@H](O)[C@@H](N5CCN(C(=O)[C@@H]6CCCN6C(=O)c6ccc7ncccc7c6)CC5)C[C@@]43C)[C@@H]1CC[C@@H]2O (stereo partly drawn) = 4.7
3. C[C@]12CC[C@H]3[C@@H](CCC4C[C@H](OS(N)(=O)=O)[C@@H](N5CCN(C(=O)[C@@H]6CCCN6C(=O)c6ccc7ccccc7c6)CC5)C[C@@]43C)[C@@H]1CC[C@@H]2OS(N)(=O)=O (stereo partly drawn) = 5
4. CO[C@H]1CC[C@H]2[C@@H]3CCC4C[C@H](O)[C@@H](N5CCN(C(=O)[C@@H]6CCCN6C(=O)c6ccc7ccccc7c6)CC5)C[C@]4(C)[C@H]3CC[C@]12C (stereo partly drawn) = 4.5
5. C[C@]12CC[C@H]3[C@@H](CCC4C[C@H](O)[C@@H](N5CCN(C(=O)[C@@H]6CCCN6C(=O)c6ccc7ccccc7n6)CC5)C[C@@]43C)[C@@H]1CC[C@@H]2O (stereo partly drawn) = 1.4

====

Tested on: MCF-7 breast cancer cells
Assay: Cell proliferation assay (MTS) on MCF-7 breast cancer cells
Type: cell-based, human
Conditions: Table 3, 3 days incubation
pIC50: −log10 of the molar value.
Each record here notes measured pIC50.
result type: pIC50

1) C=C(C)[C@H]1CC=C(C(=O)N2CCC[C@H]2C(=O)N2CCN([C@H]3C[C@@]4(C)[C@@H](CC[C@@H]5[C@@H]4CC[C@]4(C)[C@@H](O)CC[C@@H]54)C[C@@H]3O)CC2)CC1 = 6.15
2) C[C@]12C[C@H](N3CCN(C(=O)[C@@H]4CCCN4C(=O)/C=C/c4ccccc4)CC3)[C@@H](O)C[C@@H]1CC[C@@H]1[C@@H]2CC[C@]2(C)[C@@H](O)CC[C@@H]12 = 6.40
3) C[C@]12C[C@H](N3CCN(C(=O)[C@@H]4CCCN4C(=O)c4cccc5ccccc45)CC3)[C@@H](O)C[C@@H]1CC[C@@H]1[C@@H]2CC[C@]2(C)[C@@H](O)CC[C@@H]12 = 6.30
